Consider the following compounds and their measured pIC50 readings.
measuredTarget: AhR (Homo sapiens)
Construct: endogenous in cells; host or cells: U937 cells
Sequence (P35869 11-848): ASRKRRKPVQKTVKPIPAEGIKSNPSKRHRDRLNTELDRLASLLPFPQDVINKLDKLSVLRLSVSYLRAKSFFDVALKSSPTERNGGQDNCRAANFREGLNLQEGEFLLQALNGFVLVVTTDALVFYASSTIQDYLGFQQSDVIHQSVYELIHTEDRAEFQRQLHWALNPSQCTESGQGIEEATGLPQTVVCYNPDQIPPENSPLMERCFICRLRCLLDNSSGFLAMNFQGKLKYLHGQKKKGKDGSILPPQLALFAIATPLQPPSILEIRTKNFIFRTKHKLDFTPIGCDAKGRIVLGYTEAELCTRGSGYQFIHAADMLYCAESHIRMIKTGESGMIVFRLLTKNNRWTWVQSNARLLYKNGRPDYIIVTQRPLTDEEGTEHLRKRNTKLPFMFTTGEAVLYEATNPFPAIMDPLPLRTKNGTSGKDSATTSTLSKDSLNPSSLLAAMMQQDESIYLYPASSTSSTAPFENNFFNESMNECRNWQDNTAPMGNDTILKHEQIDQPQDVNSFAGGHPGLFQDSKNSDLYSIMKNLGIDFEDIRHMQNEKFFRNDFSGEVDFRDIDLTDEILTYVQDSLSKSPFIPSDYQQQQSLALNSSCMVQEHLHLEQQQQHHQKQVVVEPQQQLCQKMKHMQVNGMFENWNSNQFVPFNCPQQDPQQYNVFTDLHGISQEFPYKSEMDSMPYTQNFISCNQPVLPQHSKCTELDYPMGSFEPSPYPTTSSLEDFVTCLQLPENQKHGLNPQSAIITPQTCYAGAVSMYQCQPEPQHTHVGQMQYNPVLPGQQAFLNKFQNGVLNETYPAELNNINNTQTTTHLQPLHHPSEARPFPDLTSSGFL
procedureDetails: AhR antagonism in U937 cells (Promega P450-Glo assay)
Type: cell-based
assayConditions: inhibition of 300 μM KYNA response, 24 hrs, CYP1A1 activity readout (Luciferin-CEE), arithmetic mean of pIC50
Protocol: The compounds of the examples were tested in selected biological assays two or more times. […] AhR antagonism was assessed in U937 cells (myeloid lineage cell line derived from a human histiocytic lymphoma). […] CYP1A1 activity is subsequently determined by assessing the conversion of Luciferin-CEE to luciferin, which in turn reacts with luciferase to produce light. […]
// pIC50 is dimensionless: -log10 of concentration (M)

smilesNotation: Cc1cc(NC(=O)c2ccnn2C)ccc1-c1nc2ccccc2o1
pIC50: 8.10
//
smilesNotation: Cn1nccc1C(=O)Nc1ccc(-c2nc3cccc(C(N)=O)c3o2)cc1
pIC50: 6.70
//
smilesNotation: Cn1nccc1C(=O)Nc1ccc(-c2nc3cccc(C(=O)NCCc4c[nH]c5ccccc45)c3o2)cc1
pIC50: 7.30
//
smilesNotation: Cc1cccc2oc(-c3ccc(NC(=O)c4ccnn4C)cc3)nc12
pIC50: 7.50
//
smilesNotation: Cn1nccc1C(=O)Nc1ccc(-c2nc3ccccc3s2)cc1
pIC50: 7.30
//
smilesNotation: Cc1cc(NC(=O)c2ccon2)ccc1-c1nc2cccc(C)c2o1
pIC50: 7.10

Which pIC50 value is on record for Cc1cc(NC(=O)c2ccon2)ccc1-c1nc2ccccc2o1 ? 7.10

Which pIC50 value is on record for Cn1nccc1C(=O)Nc1ccc(-c2nc3cccc(C#N)c3o2)cc1 ? 7.80

Which pIC50 value is on record for Cn1nccc1C(=O)Nc1ccc(-c2nc3ccccc3o2)cc1 ? 7.60
